What kon was measured for each of the following?
- Study target: T1, hRET.mFc (human)
- T1 construct: also called dimeric human RET
- Assay method text: SPR Biacore T200, mAb capture, 25 C
Answers are plain numbers, in M⁻¹ s⁻¹.

{"Binder": "H4H8045P (antibody, human IgG4, V domains shown, human IgG4 Fc (H4H prefix)) VH: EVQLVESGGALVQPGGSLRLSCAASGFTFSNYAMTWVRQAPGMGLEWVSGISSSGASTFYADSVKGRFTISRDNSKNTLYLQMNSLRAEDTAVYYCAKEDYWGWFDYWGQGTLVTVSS VL: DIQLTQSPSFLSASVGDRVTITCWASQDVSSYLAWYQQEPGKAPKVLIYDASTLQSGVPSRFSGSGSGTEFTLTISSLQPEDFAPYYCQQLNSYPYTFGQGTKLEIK", "Endpoint name": "kon", "Measurement": 381000}

Turning to the following binder.
Task: Given the entry H4H8060P (antibody, human IgG4, V domains shown, human IgG4 Fc (H4H prefix)) VH: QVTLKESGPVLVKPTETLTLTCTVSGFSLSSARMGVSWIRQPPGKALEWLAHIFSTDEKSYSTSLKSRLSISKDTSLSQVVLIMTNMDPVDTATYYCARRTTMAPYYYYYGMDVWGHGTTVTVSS VL: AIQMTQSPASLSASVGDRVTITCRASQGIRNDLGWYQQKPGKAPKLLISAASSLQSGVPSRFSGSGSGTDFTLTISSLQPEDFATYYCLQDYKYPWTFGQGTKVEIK , report its measured kon.
Output: 827000
